PROTOCOL: soluble on expression in E. coli; label from the status in PepcDB or PDB records
OBSERVABLE: soluble on expression in E. coli

seq_text=MSLKYEGSISINATKDQILKLLDNPDQVAQCFPGIKSFSKEGEEYKVVGVTGIGFIKGEYRANVRFEKIDDNKRKIIAKGTGMNSNVDIDAIAEALDGKINYSADVKVAGVLASVGARLMGSAVEKIINDLFNCIKERVIKEGHHHHHH observable="soluble on expression in E. coli" test_value=soluble
seq_text=MDSARALIARGWGVSLVSRCLRVSRAQLHVILRRTDDWMDGRRSRHTDDTDVLLRIHHVIGELPTYGYRRVWALLRRQAELDGMPAINAKRVYRLMRQNALLLERKPAVPPSKRAHTGRVAVKESNQRWCSDGFEFCCDNGERLRVTFALDCCDREALHWAGTTGGFNSETVQDVMLGAVERRFGNDLPSSPVEWLTDNGSCYRANETRQFARMLGLEPKNTAVRSPESNGIAESFVKTIKRDYISIMPKPDGLTAAKNLAEAFEHYNEWHPHSALGYRSPREYLRQRACNGLSDNRCLEI observable="soluble on expression in E. coli" test_value="not soluble"
seq_text=MILKTTLELVIDVKNNEKKIRTHSWKTKKIPPKKGEVSGQKLMVEKKSSKIFIENLKCQGNSAKNIFVFHLDLLHIKKLKNLNISMSSTDPILDISFDKPVYYPGDNMKLTVSVDTKRPLNARSVMFRCRGFRNRTVSFLNKYGIAWICKDGKNELPVGRLEQKFQFELGKDCPPTYKDGKIIYKVRLEIDQPWSRPLFIEKEFKMVHKLADQKMSQVMTYTSSPRFDALFSNGQPTFKVTMPKFTLYPGETTEFKLEVENHSSSTVKKIYAELEAEPFPLYHIYGNTKAKGKMHVLVAPYSTQKFTIPFTIPTDLTASFHTCGSSLKYTMKFGLVTDSWLTTDPALALVVSIGELESEEKKDEALKTPPPPPYTA observable="soluble on expression in E. coli" test_value="not soluble"
seq_text=SEGWAGRVRRHLAGDPARGPTMDVLAAELGVSVRTLRRRLADEGTDYETVVDEIREALAEALLATTTLTVAEVSERLGYSEPSAFARAFRRWKAMSPNEYRRSA observable="soluble on expression in E. coli" test_value=soluble
seq_text=MGSDKIHHHHHHMLLYIHGFNSSPFSDKAVITARYMAEYHPSLTFHQPQLPNTPKAAMALLQSYVEAAQQANEPLNYIGSSLGGYFASYLAERYGGRAVLVNPAVKPFELFDEFMGPQFNPYTQEHYQVLPEHKREVAEFNTPVIRNPERFLVLLQTGDEVLDYREALHKYHHCQLRIESGGDHSFVGYERYLQTVSQFLHLP observable="soluble on expression in E. coli" test_value="not soluble"
seq_text=GPDSEMCKDYRVLPRIGYLCPKDLKPVCGDDGQTYNNPCMLCHENLIRQTNTHIRSTGKCEESSTPGTTAASMPPSDE observable="soluble on expression in E. coli" test_value=soluble

Now take the following sequence into account.
QUERY: Returns the measured soluble on expression in E. coli for the input sequence. Input: MSKIASEVVATTLNDWYIAIKKQKVDESIKYYSEIKKLFDEMEEDQEVLAYYSLLEERHKMLLHSSRGEPLQKHTYFTEDNQNFITKTNDKLEYNFYLFEAMYEAYNKNYDRAINLYGLAEKKLAEIPDEIEAAEFYSKVSYLYTLVKQSIVAQHYIKNAISIYKRHPDYKCKLATSTMIAAANYADMKRFEEAEQYYLEAIDIAKETKDEFLKAQLFHNLSIVYSDWNKPDKCIESLEKAIGNESWLHSIYYINSLFMMIKELFKIDEKMKAINFYNKAQERLILMENKVYEAKISILYNLYCGELKNNFNNCISNIEFLKQQNELESVDELSYIAAKRFESIGAFEEATSFFNAKIWAE
RESULT: soluble

Origin of values: the DeepSol protein solubility set
